# System: TYK2(JH1domain-catalytic)
# CONDITION_DESCRIPTION: concentration: 1 μM, replicates: in singlicate; n = 1;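 further: KINOMEscan kinase panel screen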
MEASUREMENT_KIND: %Inh (%)
Express the result in % but write the number alone.

Example results:
Measured %Inh, Nc1n[nH]c2ncc(-c3ccccc3)cc12 : 45

So, O=C(NCc1cccs1)c1cc(C(=O)c2c(Cl)cccc2Cl)c[nH]1 ? Its %Inh was 1

Short answer for CCC(=O)c1c(-c2ccccc2)c2cc(Cl)ccc2c(=O)n1Cc1cc(S(C)(=O)=O)n(CCC(C)(C)O)n1 : %Inh was 0

// %Inh lookup, compound = CCc1nc(-c2cccc(C)c2)c(-c2ccncc2)s1 , result: 0

get_value(item= CCn1c(-c2nonc2N)nc2ccccc21 , readout=%Inh) returns 0

The recorded %Inh for CCC(=O)c1c(-c2ccccc2)c2cc(Cl)ccc2c(=O)n1Cc1cc(C(=O)NC2CC2)n(C)n1 is 8

Entry O=C(Nc1ccc2c(c1)OCO2)NC1CCN(c2ccnc(NCc3ccc(F)cc3)n2)CC1 , %Inh reported as 0

Please fill in: %Inh reported for Nc1ncnc2c1ncn2-c1cccc(F)c1 = 38

Short answer for Cc1nnc(-c2ccc(C)c(-c3ccc(C(=O)O)cc3)c2)o1 : %Inh was 15

The compound FC(F)(F)c1ccc(-c2ncn(CCCN3CCOCC3)c2-c2ccncc2)cc1 showed %Inh equal to 32

Others:
Sure, the documented %Inh for COc1cccc(-n2cnc3c(N)ncnc32)c1 is 83

Entry under test: COc1cc(Nc2ccnc3ccc(C(F)(F)F)cc23)cc(OC)c1OC . Its %Inh was 19

Lab note: measured %Inh of O=C1NC(=O)C(c2ccccc2)=C1Nc1cccc(O)c1 was 14

GET /value?item= Cc1c(Cn2c(C)nn3c(=O)cc(N4CCO[C@H](C)C4)nc23)cccc1C(F)(F)F &field=%Inh returns 0

Value of measured %Inh for the entry COc1cc2nccc(Nc3cccc(Oc4ccccc4)c3)c2cc1OC.Cl : 5

get_value(item= COc1ccc(-c2cc3c(C)nc(N)nc3n([C@H]3CC[C@H](OCCO)CC3)c2=O)cn1 , readout=%Inh) returns 0

// %Inh lookup, compound = CCC(=O)c1c(-c2ccccc2)c2cc(Cl)ccc2c(=O)n1Cc1ccc(C(=O)O)cc1 , result: 0

So for COc1cc2ncn(-c3cc(OCCCc4ccccc4)c(C(N)=O)s3)c2cc1OC , the logged %Inh turned out to be 0

The compound listed as CCC(=O)c1c(-c2ccccc2)c2cc(Cl)ccc2c(=O)n1Cc1cc(S(C)(=O)=O)n(CC(N)=O)n1 shows %Inh equal to 0

----------
# Test system: SBK1
# CONDITION_DESCRIPTION: concentration: 1 μM, replicates: in singlicate; n = 1
Consider the following compounds and their measured %Inh readings.
Kindly provide the numeric value in % only, without the unit symbol.

Item: COc1ccc(-n2cnc3c(N)ncnc32)cc1 [SKF-97236] | System: SBK1 | %Inh: 13

Given the compound COC(=O)c1c(-c2ccccc2)c2cc(Br)ccc2c(=O)n1Cc1ccc(NC(=O)CCC(=O)O)cc1 and test system SBK1, the measured %Inh is 1

Item Nc1ncnc2c1ncn2-c1cccc2ccccc12 [SKF-97184] was tested on SBK1; the reported %Inh is 28

Others:
Query Cc1cccc(-c2nc(Nc3ccc4c(cnn4C)c3)c3ccccc3n2)n1 [GW876731] on SBK1; %Inh returned: 10

The compound Cc1nnc(-c2ccc3ncn(-c4ccc(S(C)=O)cc4)c3c2)o1 (stereo not drawn) on SBK1: %Inh was 0

The compound OCCCNc1nccc(-c2c(-c3cccc(C(F)(F)F)c3)nn3cc(C(F)(F)F)ccc23)n1 [GW630813] , when measured on SBK1, yielded %Inh of 0

Case Cc1ccc(Oc2ccc(Nc3ncnc4cc[nH]c34)cc2C)cn1 , SBK1, %Inh recorded as 44

The reported SBK1 %Inh of FC(F)(F)c1ccc(-c2ncn(CCCN3CCOCC3)c2-c2ccncc2)cc1 [SB-217780] is 13

Value (%Inh, SBK1) for record CCC(=O)c1c(-c2ccccc2)c2cc(Cl)ccc2c(=O)n1Cc1ccc(C(=O)O)cc1 = 0

----------
# Test system: ERBB2
# CONDITION_DESCRIPTION: concentration: 1 μM, replicates: in singlicate; n = 1
As shown below, each of these compounds has a reported %Inh value.
Numeric only. Scale: %

%Inh measured on Cl.NS(=O)(=O)c1cccc(Nc2cc(-c3ccc(F)cc3)n[nH]2)c1 = 4

Noted for CCC(=O)c1c(-c2ccccc2)c2cc(Cl)ccc2c(=O)n1Cc1cc(S(C)(=O)=O)n(CC(F)F)n1 : its %Inh reads 0

%Inh measured on O=C(Nc1n[nH]c2nc(-c3ccccc3)c(Br)cc12)C1CC1 = 11

Sample COc1cc2ncn(-c3cc(OCc4ccncc4)c(C(N)=O)s3)c2cc1OC ; %Inh observed: 0

Kindly review the next compound as well.
Data point: O=C(Nc1n[nH]c2nc(-c3ccccc3)c(Cl)cc12)C1CC1 ; %Inh = 6

----------
# System: CDC2L5
# Construct: gene CDK13
# CONDITION_DESCRIPTION: concentration: 1 μM, replicates: in singlicate; n = 1
MEASUREMENT_KIND: %Inh (%)
Give the value, in units of %, as a plain number.

%Inh value, target or system CDC2L5, for CCc1ccc(-c2ccc3c(c2)-c2nn(C)cc2S(=O)(=O)N3C)cc1 : 16

COc1cc2ncn(-c3cc(OCc4ccncc4Br)c(C(N)=O)s3)c2cc1OC [GW854278] on CDC2L5 gives %Inh = 5

// returns %Inh for O=C(NCCNc1ccnc(Nc2ccc(F)cc2)n1)Nc1ccc2c(c1)OCO2 [GSK1379882] with CDC2L5; value = 0

The value of %Inh recorded for O=C(Nc1n[nH]c2nc(-c3ccccc3)c(Cl)cc12)C1CC1 [SB-734909] when tested on CDC2L5 reads 0

Entry O=C(Nc1ccc2c(c1)OCO2)NC1CCN(c2ccnc(NCc3ccc(F)cc3)n2)CC1 [GSK1379859] , tested on CDC2L5, has a reported %Inh of 0

// returns %Inh for Nc1n[nH]c2nnc(-c3ccccc3)c(-c3ccccc3)c12 [GW554060] with CDC2L5; value = 0

Others:
Bench note, CDC2L5: CN1C(=O)C(Nc2cc(Cl)c(O)c(Cl)c2)=C(c2ccc(Cl)cc2)C1=O [SB-404321] , %Inh reads 0

Measured %Inh for this entry COc1cc(Nc2ccnc3ccc(C(F)(F)F)cc23)cc(OC)c1OC [GW577382] on CDC2L5: 0

The reported %Inh value, CDC2L5, for Cc1nnc(-c2ccc(C)c(-c3ccc(C(=O)O)cc3)c2)o1 [GW608005] reads 0

----------
%Inh reference
# Tested on: PIP5K2C
# Construct: gene PIP4K2C
# CONDITION_DESCRIPTION: concentration: 1 μM, replicates: in singlicate; n = 1
# output: bare number, implied unit %

Record excerpt, results attached:
For this compound ( O=C(Nc1n[nH]c2cc(-c3ccccc3F)ccc12)C1CC1 [SB-733371] ), measured %Inh is 0

%Inh reading for Cc1cccc(-c2nc(Nc3ccc4c(cnn4C)c3)c3ccccc3n2)n1 [GW876731] : 0

The compound listed as COc1cccc(C2=C(Nc3cccc(C(=O)O)c3)C(=O)NC2=O)c1 [SB-390770] has a reported %Inh of 23

Memo: CCC(=O)c1c(-c2ccccc2)c2cc(Cl)ccc2c(=O)n1Cc1cc(S(C)(=O)=O)n(CC(F)F)n1 , reported %Inh: 0

Reported %Inh ( Cc1nnc(-c2ccc(C)c(-c3ccc(C(=O)O)cc3)c2)o1 [GW608005] ) = 0

Further cases:
The reported value for COc1ccc(-c2cc3c(C)nc(N)nc3n([C@H]3CC[C@H](OCCO)CC3)c2=O)cn1 in terms of %Inh is 9

----------
# System: ULK2
# CONDITION_DESCRIPTION: concentration: 1 μM, replicates: in singlicate; n = 1
MEASUREMENT_KIND: %Inh (%)
Express it in %; write the number only.

Answered examples (4):
Entry COc1ccc(CNC(=O)NC2CCN(c3ccnc(Nc4ccc(F)cc4)n3)C2)cc1 (centres unmarked) ; %Inh = 0

// sample COc1cc2nccc(Nc3ccc(OCc4ccc(NC(C)=O)cc4)cc3)c2cc1OC.Cl , its %Inh was 0

%Inh for Nc1n[nH]c2nnc(-c3ccccc3)c(-c3ccccc3)c12 is 8

Data point: Nc1nc(N)c2nc(-c3ccccc3)[nH]c2n1 ; %Inh = 9

Consider the record given below.
The compound COC(=O)c1c(-c2ccccc2)c2cc(Br)ccc2c(=O)n1Cc1ccc(S(C)(=O)=O)cc1 showed %Inh equal to 13
